test-context: pH 6.8
readout-name: aqueous solubility (µg/mL)

Some compounds with known aqueous solubility results, for comparison:
CCOc1ccccc1CNCCc1c[nH]c2ccccc12 = 39.6
CC1Cc2ccccc2N1C(=O)CN1CCC(n2c(=O)[nH]c3ccccc32)CC1 (configuration not stated) = 54.8
Clc1ccc(Cc2nc(-c3ccccc3)n[nH]2)cn1 = 20.1

A. Cc1cc(C)c(-n2cccn2)c(-c2cn(C[C@@H]3CCCO3)nn2)c1
B. Cc1ccc(-c2noc3nc(C)cc(C(=O)O)c23)cc1
C. c1ccc(-c2ccc(Cn3ccnc3-c3cc4n(n3)CCCNC4)cc2)cc1
D. O=C1CNC(=O)N1CCCN1CCc2sccc2C1
Order the 4 compounds from highest to lowest aqueous solubility. Your reply should list the labels following the order given in the request.
B, D, A, C
(B: 74.3 µg/mL, D: 51.2 µg/mL, A: 26.4 µg/mL, C: 4.59 µg/mL)

----------
readout-name: MDR1-MDCK efflux ratio

COc1ccccc1N1CCN(c2nc(-c3ccc(F)cc3)cc(=O)[nH]2)CC1 = 2.15
O=C(NC1CCCCCC1)c1ccc(CSc2nc3ccccc3[nH]2)cc1 = 2.99

a. COc1cc2cc(N)c(C3CCN(C(=O)C(C)(C)C)CC3)nc2cc1OC
b. CCOc1ncccc1-c1nc(C)cc(NC)n1
Form field 'greater MDR1-MDCK efflux ratio' accepts a or b ; which applies? Give the label of your selection.
a
(a: 5.8, b: 0.672)

a. COc1cc([C@H](CC(=O)O)c2ccc(C)c(CN3C[C@@H](C)Oc4ccccc4S3(=O)=O)c2)cc2nnn(C)c12
b. O=C1CNC(=O)N1CCCN1CCc2sccc2C1
Form field 'greater MDR1-MDCK efflux ratio' accepts a or b ; which applies? Give the label of your selection.
a

A. COc1ccc(OC)c(S(=O)(=O)NCCC(=O)Nc2ccccc2C)c1
B. Cn1cnnc1-c1cccc(NS(=O)(=O)c2ccc(N3CCCC3=O)cc2)c1
Form field 'greater MDR1-MDCK efflux ratio' accepts A or B ; which applies? Give the label of your selection.
A
(A: 19.9, B: 3.7)

----------
readout-name: intrinsic clearance, rat liver microsomes

Some molecules with known intrinsic clearance, rat liver microsomes results, for comparison:
CCN(Cc1nc(C)no1)C(=O)c1cc(C)c(C)n(C)c1=O = ≤ 10.7 mL/min/kg
Cn1cc(-c2cn3nccc3c(-c3cnn([C@]4(CC#N)C[C@@H](C#N)C4)c3)n2)cn1 = ≤ 10.7 mL/min/kg
COc1cc(C(=O)O)c(N)c(OC)c1OC = ≤ 10.7 mL/min/kg

Return reported intrinsic clearance, rat liver microsomes; argument: `Cc1cc(C(=O)NCCc2ccccn2)c(C)s1`
232 mL/min/kg

Return reported intrinsic clearance, rat liver microsomes; argument: `CCc1ccccc1-c1cn(CCc2cnccn2)nn1`
290 mL/min/kg

Return reported intrinsic clearance, rat liver microsomes; argument: `Cc1cc(NC(=O)C2CCOCC2)sn1`
≤ 10.7 mL/min/kg

Return reported intrinsic clearance, rat liver microsomes; argument: CC(c1nnc(-c2cccs2)o1)N1CCC(n2c(=O)[nH]c3ccccc32)CC1 (stereo not drawn)
273 mL/min/kg

Return reported intrinsic clearance, rat liver microsomes; argument: `Cc1cc(C)nc(CNC(=O)CC2CCNCC2)n1`
≤ 10.7 mL/min/kg

----------
readout-name: MDR1-MDCK efflux ratio

Cc1ccc(-c2cnc(N)cn2)c2cccnc12 = 0.671

a. Cc1cc(C(=O)N(C)Cc2ccsc2)no1
b. COc1cc(OC)c(OC)cc1CNC(C)(C)C
Compare MDR1-MDCK efflux ratio: is it lower for a or for b ? Give the label of your selection.
a

----------
test-context: pH 6.8
readout-name: aqueous solubility (µg/mL)

O=C(NCCc1ccc2c(c1)OCO2)N1CCc2sccc2C1 = 45.5
Cc1cc2nc(CCC(=O)N3CCC(c4ccc(C(=O)N(C)C)c(N)n4)CC3)[nH]c2cc1C = 39.7
O=C1C(N2CCC(n3c(=O)[nH]c4ccccc43)CC2)CCN1c1ccccc1 (stereo not given) = 62
Cc1cc(C)n(-c2ccc(CNC(=O)C3CCC3)cn2)n1 = 39.7
COc1ccc(-n2c(Cn3cnc(C#N)n3)nc3ccccc32)cc1 = 36

----------
test-context: pH 6.8
readout-name: aqueous solubility (µg/mL)

Some compounds with known aqueous solubility results, for comparison:
CN(C)CCOc1ccc(-c2nc(-c3ccncc3)c(-c3ccc4c(c3)CC/C4=N\O)[nH]2)cc1 = 1.1
COc1ccc2nc(C(=O)Nc3cnc4c(cnn4C(C)C)c3)ccc2c1 = 0.15
Cc1ccc(C)c(CN2C(=O)C(=O)N(CC(C)C)C2=O)c1 = 1.75
O=C(NCCN1CCC(c2ccccc2)CC1)c1ccc2ncsc2c1 = 44
O=C(NCc1cccnc1)c1cnn(-c2ccccc2)c1 = 38.3

P. CCCc1nnc2sc(-c3cc(C(C)C)nn3C)nn12
Q. COc1ccc(CCC(=O)N2CCCNCC2)cc1
Form field 'greater aqueous solubility' accepts P or Q ; which applies? Give the label of your selection.
Q
(Q: 35.7 µg/mL, P: 17.9 µg/mL)

a. Cc1nn(-c2ccc(F)cc2)c(Cl)c1C(=O)N1CCC(S(=O)(=O)C(C)C)CC1
b. N#Cc1cccc(CN2CCOC[C@H](O)C2)c1
Compare aqueous solubility: is it lower for a or for b ? Give the label of your selection.
b

----------
readout-name: intrinsic clearance, human liver microsomes (mL/min/kg)

COc1ccccc1-c1cc(NC(=O)c2cccc(N3CCNC3=O)c2)[nH]n1 = 7.53
COc1ccc(CNC(=O)c2nnn(-c3ccc(OC)cc3)c2N)cc1 = 7.49
CC1CCN([C@H](c2ccc(F)cc2)c2ccc([C@@H](C)C(=O)O)cc2-c2ccc(C(F)(F)F)cc2)CC1 = 7.84

----------
readout-name: intrinsic clearance, rat liver microsomes (mL/min/kg)

C[C@@H]1CCN(C(=O)CC#N)C[C@@H]1N(C)c1ncnc2[nH]ccc12 = 120
CN(Cc1ccncc1)Cc1cc2ccccc2nc1O = 222
Cc1c(C(=O)NCC2CCSCC2)nnn1-c1cccc2cnccc12 = 1770
CC(C)n1nccc1-c1ncccc1COc1cccc(O)c1C=O = 716
CC(=O)N1CCc2c(sc(NC(=O)C(C)C)c2-c2nc3ccccc3s2)C1 = 228
CN(C)c1cncc(-c2ccc(C(=O)NC(C)(C)C)cc2)n1 = 483
CNC(=O)Cc1csc(-c2ccc(C)cc2)n1 = 1010
O=C(CCc1ccc(-c2ccccc2)o1)N1CCC(n2c(=O)[nH]c3ccccc32)CC1 = 1760
Cc1nc(CN2C[C@@H](c3ccc4c(c3)OCO4)[C@@H]3[C@H]2C2CCN3CC2)co1 = 205

P. COc1cccc(-c2nc(-c3cccnc3)n[nH]2)c1
Q. Cc1ncc(CN2CC[C@@H](Nc3cncc(Cl)n3)[C@@H](C)C2)s1
Form field 'greater intrinsic clearance, rat liver microsomes' accepts P or Q ; which applies? Give the label of your selection.
Q
(Q: 637 mL/min/kg, P: 46.5 mL/min/kg)

----------
readout-name: intrinsic clearance, rat liver microsomes (mL/min/kg)

I. CN(C)c1ccc(Cn2c(=O)[nH]c3ccccc3c2=O)cn1
II. Cc1ccccc1OC1CCN(C(=O)Nc2ccc3c(c2)ncn3C)CC1
III. COCc1ccc(SCC(=O)NC2CCCC2)cc1
Order by intrinsic clearance, rat liver microsomes, ascending. Your reply should list the labels following the order given in the request.
II, I, III

----------
readout-name: intrinsic clearance, human liver microsomes (mL/min/kg)

CCNC(=O)c1ccnc(-c2ccc(F)c(C)c2)c1 = 123
Cn1cc(-c2nnc(NCc3ccc4ccccc4c3)o2)cn1 = 7.14
CN1CCN(C(=O)c2cc(Br)cnc2Cl)c2cnccc21 = 9.09

a. Nc1nccc2ccc(-c3cccc(F)c3)cc12
b. COc1cc2c(cc1OC)CN(C(=O)C1CCCN(S(=O)(=O)c3cccs3)C1)CC2 (configuration not stated)
c. CC(C)[C@H](O)C(=O)N[C@@H](C)C(=O)N[C@@H]1C(=O)N(C)CCc2ccccc21
d. CCC1(CC)NC(=O)N(CC(=O)N2CCOCC3(CCCC3)C2)C1=O
e. Cc1cc(C)c(NC(=O)CN(C)c2ccc(C#N)nc2)c(C)c1
Hi! Can you put these in order of intrinsic clearance, human liver microsomes, lowest number first? Your reply should list the labels following the order given in the request.
c, e, d, b, a
(c: 6.33 mL/min/kg, e: 14.4 mL/min/kg, d: 30.6 mL/min/kg, b: 68.3 mL/min/kg, a: 209 mL/min/kg)

1. COc1cccc(C(=O)NCC(=O)Nc2cccc3c2CCCC3)c1
2. CN(Cc1cccc(C#N)c1)Cc1ccccc1C#N
Form field 'greater intrinsic clearance, human liver microsomes' accepts 1 or 2 ; which applies? Give the label of your selection.
2

1. CCNc1nc(-c2cccnc2)nc(C)c1C
2. CNC(=O)[C@H]1O[C@@H](n2cnc3c(NCc4cccc(I)c4)ncnc32)[C@H](O)[C@@H]1O
Form field 'greater intrinsic clearance, human liver microsomes' accepts 1 or 2 ; which applies? Give the label of your selection.
2
(2: 195 mL/min/kg, 1: 49.7 mL/min/kg)
